# test_target: T1, recombinant human VEGF165 (human, UniProt P15692 27-191)
# T1 construct: mature; Isoform VEGF165 of the entry; also called hVEGF165; hVEGF
# T1 sequence (P15692 other isoform, or with tags, fused parts or gaps): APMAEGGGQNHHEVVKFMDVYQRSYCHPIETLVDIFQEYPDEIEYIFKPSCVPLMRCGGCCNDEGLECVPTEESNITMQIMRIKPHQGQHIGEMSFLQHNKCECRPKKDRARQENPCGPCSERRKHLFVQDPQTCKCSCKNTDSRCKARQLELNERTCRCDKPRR
# test_protocol: Biacore SPR, VEGF immobilized, pH 5
assay_endpoint: koff (s⁻¹)
Lab book: enter the figure in s⁻¹, no units written.

Data point: 578min_max V89A (scFv, the VH entry already carries V89A; tied by name; also called Protein Nr; 978) scFv: EIVMTQSPSTLSASVGDRVIITCQASEIIHSWLAWYQQKPGKAPKLLIYLASTLASGVPSRFSGSGSGAEFTLTISSLQPDDFATYYCQNVYLASTNGANFGQGTKLTVLGGGGGSGGGGSGGGGSGGGGSEVQLVESGGGLVQPGGSLRLSCTASGFSLTDYYYMTWVRQAPGKGLEWVGFIDPDDDPYYATWAKGRFTISRDTSKNTAYLQMNSLRAEDTAVYYCAGGDHNSGWGLDIWGQGTLVTVSS ; koff = 0.000612

Next:
Data point: 578min_max T84N_V89L (scFv, the VH entry already carries T84N and V89L; tied by name; also called Protein No. 1008) scFv: EIVMTQSPSTLSASVGDRVIITCQASEIIHSWLAWYQQKPGKAPKLLIYLASTLASGVPSRFSGSGSGAEFTLTISSLQPDDFATYYCQNVYLASTNGANFGQGTKLTVLGGGGGSGGGGSGGGGSGGGGSEVQLVESGGGLVQPGGSLRLSCTASGFSLTDYYYMTWVRQAPGKGLEWVGFIDPDDDPYYATWAKGRFTISRDNSKNTLYLQMNSLRAEDTAVYYCAGGDHNSGWGLDIWGQGTLVTVSS ; koff = 0.0018
